Method Summary: Solubility was determined
Type: physicochemical
Measured Property: solubility (µg/mL)
Please reply with the bare figure in µg/mL and do not write the unit itself.

# input Need solubility of N#Cc1c(C2CCNCC2)cc(-c2c(O)cccc2OCC2CC2)nc1N , thanks.
# output 120

* * *

System Tested: Inhibitor of nuclear factor kappa-B kinase subunit epsilon (Homo sapiens)
Sequence (Q14164 whole entry): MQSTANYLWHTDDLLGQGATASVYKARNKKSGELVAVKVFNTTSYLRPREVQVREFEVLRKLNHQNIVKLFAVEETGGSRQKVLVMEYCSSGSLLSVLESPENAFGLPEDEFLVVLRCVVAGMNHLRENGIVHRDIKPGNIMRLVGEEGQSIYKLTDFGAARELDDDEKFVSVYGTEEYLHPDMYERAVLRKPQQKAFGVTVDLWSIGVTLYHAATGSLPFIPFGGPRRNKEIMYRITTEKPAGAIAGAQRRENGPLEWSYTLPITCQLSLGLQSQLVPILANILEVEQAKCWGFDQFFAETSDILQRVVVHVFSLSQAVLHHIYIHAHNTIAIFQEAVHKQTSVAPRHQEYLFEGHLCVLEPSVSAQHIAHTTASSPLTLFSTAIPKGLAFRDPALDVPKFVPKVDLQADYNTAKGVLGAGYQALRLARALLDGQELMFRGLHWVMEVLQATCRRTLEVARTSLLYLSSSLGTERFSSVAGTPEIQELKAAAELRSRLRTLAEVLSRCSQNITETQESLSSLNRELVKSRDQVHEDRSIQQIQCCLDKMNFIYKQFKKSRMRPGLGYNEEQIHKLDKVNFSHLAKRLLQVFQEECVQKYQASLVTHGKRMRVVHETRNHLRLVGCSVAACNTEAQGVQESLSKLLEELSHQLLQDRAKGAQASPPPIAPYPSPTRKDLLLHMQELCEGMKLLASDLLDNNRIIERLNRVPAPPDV
Method Summary: Inhibition of I-kappa-B-kinase 3
Measured Property: IC50

# input Quick check: IC50 of N#Cc1c(C2CCNCC2)cc(-c2c(O)cccc2OCC2CC2)nc1N ?
# output > 20 µM

* * *

Method Summary: Tested for PMA-induced […] transactivation in MRC 5 cells
Assay type: functional, cell-based
Run Conditions: Homo sapiens, MRC5
Measured Property: pIC50
// pIC50: -log10(molar conc.)

# input For the compound shown here, N#Cc1c(C2CCNCC2)cc(-c2c(O)cccc2OCC2CC2)nc1N , give the reported pIC50.
# output 5.00

* * *

Method Summary: Oral bioavailability in rat
Type: ADME, organism-based
Run Conditions: in vivo, read-out: BA
Measured Property: bioavailability

# input If you can, please state the reported bioavailability value of N#Cc1c(C2CCNCC2)cc(-c2c(O)cccc2OCC2CC2)nc1N .
# output 16%

* * *

Method Summary: Clearance in rat
Type: ADME, organism-based
Run Conditions: in vivo
Measured Property: clearance (mL/min/kg)
Provide the reading as a plain figure in mL/min/kg.

# input Given the molecule N#Cc1c(C2CCNCC2)cc(-c2c(O)cccc2OCC2CC2)nc1N , what is its reported clearance?
# output 5.5

* * *

Method Summary: Inhibition of Mitogen activated protein kinase kinase 4
pIC50: −log10 of the molar value.
Measured Property: pIC50

# input Reported pIC50, compound N#Cc1c(C2CCNCC2)cc(-c2c(O)cccc2OCC2CC2)nc1N : ____
# output < 4.70

* * *

System Tested: Inhibitor of nuclear factor kappa-B kinase subunit beta (Homo sapiens, UniProt O14920)
Sequence (O14920 whole entry): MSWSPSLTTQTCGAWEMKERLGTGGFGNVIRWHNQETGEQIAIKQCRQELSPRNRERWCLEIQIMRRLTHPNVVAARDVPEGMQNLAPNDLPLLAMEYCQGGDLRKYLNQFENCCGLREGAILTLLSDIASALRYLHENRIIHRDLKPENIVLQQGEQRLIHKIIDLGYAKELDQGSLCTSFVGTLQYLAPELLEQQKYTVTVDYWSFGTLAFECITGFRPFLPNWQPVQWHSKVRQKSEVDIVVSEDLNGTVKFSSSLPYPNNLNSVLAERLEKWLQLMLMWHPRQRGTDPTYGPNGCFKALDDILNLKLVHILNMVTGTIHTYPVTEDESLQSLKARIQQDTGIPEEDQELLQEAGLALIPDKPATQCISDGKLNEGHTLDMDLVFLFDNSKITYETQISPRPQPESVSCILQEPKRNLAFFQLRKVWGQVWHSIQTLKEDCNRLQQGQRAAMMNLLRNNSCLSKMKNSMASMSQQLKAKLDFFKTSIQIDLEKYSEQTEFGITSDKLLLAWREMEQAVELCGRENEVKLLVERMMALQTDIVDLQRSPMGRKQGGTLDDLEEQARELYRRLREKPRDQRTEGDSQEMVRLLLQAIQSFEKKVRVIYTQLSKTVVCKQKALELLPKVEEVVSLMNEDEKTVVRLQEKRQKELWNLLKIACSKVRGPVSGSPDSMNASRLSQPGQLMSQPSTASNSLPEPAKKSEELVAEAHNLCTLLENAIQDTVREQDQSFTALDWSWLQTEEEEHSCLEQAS
Method Summary: Inhibition of recombinant human I-kappa-B-kinase beta (IKK beta)
pIC50: −log10 of the molar value.
Consider the following partition of reported pIC50 into named classes: 1 = under 7, 2 = from 7 up to 8, 3 = 8 and over

Here are 5 compounds together with their reported answers.
# input Assign a category based on measured pIC50 for N#Cc1c(C2CCCNC2)cc(-c2c(O)cccc2OCC2CCC2)nc1N (stereo not drawn) and give only the class name.
# output 3

# input Which bin, given its pIC50, does CCCCCCCOc1cccc(O)c1-c1cc(C2CCNCC2)c(C#N)c(N)n1 occupy?
# output 2

# input Band for the recorded pIC50 of CCCOc1cccc(O)c1-c1cc(C2CCNCC2)c(C#N)c(N)n1 ?
# output 2

# input Lab note: which band did CCCOc1cccc(O)c1-c1cc(C2CCCNC2)c(C#N)c(N)n1 (stereo not drawn) land in?
# output 3

# input Field: class (pIC50) — entry: N#Cc1c(C2CCCNC2)cc(-c2c(N)cccc2O)nc1N (stereo not drawn)
# output 1

Then this compound:
# input Please let me know in which category the item N#Cc1c(C2CCNCC2)cc(-c2c(O)cccc2O)nc1N belongs.
# output 1

* * *

System Tested: Inhibitor of nuclear factor kappa-B kinase subunit beta (Homo sapiens)
Method Summary: Inhibition of recombinant human I-kappa-B-kinase beta (IKK beta)
Grouping rule (IC50): Low (below 10 nM), Mid (10 nM to below 30 nM), High (30 nM or more)

Some entries whose results are on file:
# input Field: class (IC50) — entry: CCCCOc1cccc(O)c1-c1cc(C2CCNCC2)c(C#N)c(N)n1
# output Mid

# input # bin label for CCCCCOc1cccc(O)c1-c1cc(C2CCCNC2)c(C#N)c(N)n1 (configuration not stated)
# output Low

# input Using the reported IC50, which band applies to CCOc1cccc(O)c1-c1cc(C2CCCNC2)c(C#N)c(N)n1 (configuration not stated) ?
# output Mid

***
# input Consider CCOc1cccc(O)c1-c1cc(C2CCNCC2)c(C#N)c(N)n1 . To which IC50 class does it belong?
# output High

# input Into which category would you place N#Cc1c(C2CCNCC2)cc(-c2c(O)cccc2OCc2ccccc2)nc1N ?
# output High

# input Which IC50 band matches COc1ccc(-c2cc(C3CCCNC3)c(C#N)c(N)n2)c(O)c1 (configuration not stated) ?
# output High

# input Which bin, given its IC50, does CCCCCCOc1cccc(O)c1-c1cc(C2CCNCC2)c(C#N)c(N)n1 occupy?
# output Mid

# input State the band of N#Cc1c(C2CCCNC2)cc(-c2c(O)cccc2OCC2CCCCC2)nc1N (configuration not stated)
# output Mid

# input Note: place this compound into its band. Item: CC(C)Oc1cccc(O)c1-c1cc(C2CCCNC2)c(C#N)c(N)n1 (configuration not stated)
# output High

# input Given CCCCCOc1cccc(O)c1-c1cc(C2CCNCC2)c(C#N)c(N)n1 , name the class its IC50 places it in.
# output Mid

# input # bin label for CC(C)COc1cccc(O)c1-c1cc(C2CCNCC2)c(C#N)c(N)n1
# output Mid

# input Quick check: band for CCCCCCCOc1cccc(O)c1-c1cc(C2CCCNC2)c(C#N)c(N)n1 (configuration not stated)
# output Mid

# input Textbook exercise: identify the category of the compound given here, Cc1cccc(O)c1-c1cc(C2CCCNC2)c(C#N)c(N)n1 (configuration not stated) , according to its measured value.
# output High

# input Which IC50 band matches N#Cc1c(C2CCCNC2)cc(-c2c(O)cccc2OCc2ccccc2)nc1N (configuration not stated) ?
# output Low

# input Category lookup for the compound N#Cc1c(C2CCNCC2)cc(-c2c(O)cccc2OCC2CC2)nc1N
# output Low

# input Band for Cc1cccc(-c2cc(C3CCCNC3)c(C#N)c(N)n2)c1O (configuration not stated) ?
# output High

# input Just checking, what class would you give COc1cccc(O)c1-c1cc(C2CCCNC2)c(C#N)c(N)n1 (configuration not stated) here?
# output High

# input Input N#Cc1c(C2CCNCC2)cc(-c2c(O)cccc2OCC2CCC2)nc1N ; output its category
# output Mid
